Origin of values: PubChem BioAssay

experiment: CREB reporter modulators under forskolin, primary screen, cell-based, PC12, CRE-LacZ reporter, forskolin-stimulated (AID 1146); settings: luminescence, 4.5 h, higher = more signal, called active from +8 up or from −8 down;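 further: PC12 cells with 6xCRE LacZ reporter stimulated by forskolin 10 µM; beta-galactosidase reporter signal reflecting CREB driven transcription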
Label MET when z-score is at or above -1; anything below gets NOT MET.

[
  {
    "molecule": "[N-]=[N+]=Nc1ccccc1[C@@H]1OC(c2ccc(OCCCO)cc2)=N[C@]1(Cc1ccccc1)C(=O)NCC(O)CO (some centres not stated)",
    "category_label": "NOT MET"
  },
  {
    "molecule": "[N-]=[N+]=NCc1ccccc1C[C@@]1(C(=O)N2CCOCC2)N=C(c2ccc(OCCCO)cc2)O[C@@H]1c1ccccc1",
    "category_label": "MET"
  },
  {
    "molecule": "CC(C)Cc1ccc(CN2CC[C@@H](NC(=O)Nc3ccccc3)C2)cc1",
    "category_label": "MET"
  },
  {
    "molecule": "COc1ccc(NC(=O)O[C@H]2[C@H](OC(=O)Nc3ccccc3)[C@@H](OC(=O)Nc3ccccc3)[C@@H](OC)O[C@@H]2CO)cc1",
    "category_label": "NOT MET"
  },
  {
    "molecule": "O=C(NCC(F)(F)F)[C@@H]1c2ccccc2C(=O)N(Cc2ccc(OC(F)(F)F)cc2)[C@H]1c1ccc(CO)cc1",
    "category_label": "MET"
  },
  {
    "molecule": "COc1ccc(C#Cc2ccc3c(c2)[C@]2(C(=O)N3)[C@H](c3ccc(O)cc3)N3[C@H](c4ccccc4)[C@H](c4ccccc4)OC(=O)[C@H]3[C@@H]2C(=O)O)cc1",
    "category_label": "MET"
  },
  {
    "molecule": "COCCOC(=O)N1C(=O)[C@@]2(c3cc(C#Cc4ccc(OC)cc4)ccc31)[C@H](c1ccccc1OCCO)N1[C@H](c3ccccc3)[C@H](c3ccccc3)OC(=O)[C@H]1[C@@H]2C(=O)N1CCCCCCC1",
    "category_label": "MET"
  }
]
